B1: EEHEE_rd4_0469 (parent)
chain: ITIHVNGVTYHFDNPEEAEKFAQKMAKTYQLKMEIHNGEFHME

Variants of: B1
Assay: folding stability dG (cDNA display proteolysis); higher = more stable
Conditions: PBS, room temperature
READOUT_KIND: folding stability dG
Note: state the figure and append the unit.

MUTATION	folding stability dG
K24I	1.41 kcal/mol
Q23F	1.19 kcal/mol
T9M	1.21 kcal/mol

Batch of 2 variants: report folding stability dG for each.
1. A22T
2. I1F

["0.747 kcal/mol", "1.08 kcal/mol"]

Per the record, "H4S" has folding stability dG of 0.684 kcal/mol
